Tested on: RABBIT PLATELETS
Assay: Platelet release reaction (ATP release, luciferin/luciferase) induced by PAF
Assay type: cell-based, rabbits (male, albino, New Zealand)
Conditions: Oryctolagus cuniculus, read-out: % […] REACTION, compound 10 µM, 1-PAF 1.92 nM, pre-incubation 5 minutes, average of six experiments in triplicate
Label satisfied when inhibition at 10 µM >= 70%; otherwise not satisfied.

CC1=C(C(=O)OCCSc2ccccc2)C(C)C(C(=O)OCC2CCCO2)=C(C)N1 (centres unmarked); not satisfied
CCOC(=O)C1=C(C)NC(C)=C(C(=O)OCCSC)C1CC (centres unmarked); satisfied
COC(=O)C1=C(C)NC(C)=C(C(=O)OCCSC)C1C (centres unmarked); satisfied

Shift focus to the following entry.
Q: Confirm if inhibition at 10 µM reported for the compound CCCC1C(C(=O)OCC)=C(C)NC(C)=C1C(=O)OCCSC (centres unmarked) is 70% or above.
A: not satisfied
